Settings: roseburia intestinalis, 12 h, 2 µM;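 also: drug levels quantified by LC–MS at start and end of incubation with the gut bacterium, the decrease indicating bacterial metabolism of the drug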
Description: The drug is tested on Roseburia intestinalis strain: L1-82 for biotransformation. The drug concentrations were measured before and after a 12-h incubation by liquid-chromatography-coupled mass spectrometry (LC–MS)
value_kind: Bacterial Biotransformation

# example entries with known answers
| molecule | Bacterial Biotransformation |
| --- | --- |
| CC[C@@H](CO)NC(=O)[C@@H]1C=C2c3cccc4c3c(cn4C)C[C@H]2N(C)C1.O=C(O)/C=C\C(=O)O [METHYSERGIDE MALEATE] | Compound metabolized |
| CC(C)(C)NCC(O)COc1cccc2c1CC(O)C(O)C2 (stereo unspecified) | Compound NOT metabolized |
| CC(CCc1ccccc1)NCC(O)c1ccc(O)c(C(N)=O)c1 (stereo unspecified) | Compound NOT metabolized |
| c1ccc([C@H]2CN3CCSC3=N2)cc1 | Compound NOT metabolized |

Challenge: Need Bacterial Biotransformation, item CCCc1nn(C)c2c(=O)[nH]c(-c3cc(S(=O)(=O)N4CCN(C)CC4)ccc3OCC)nc12.O=C(O)CC(O)(CC(=O)O)C(=O)O [SILDENAFIL CITRATE]
Response given: Compound NOT metabolized

Entry source: ChEMBL document CHEMBL5303573
